Value source: patent US11142505B2

test system: CHO-7W cells that were stably transfected with human APP (wildtype); test: Secondary cell-based test of APP processing (sAPPalpha, sAPPbeta, Abeta 1-42); details: Secondary (1st test, n = 3); ratio, ↑ increase
Structures can show the parent of a compound that is named as a salt.
measurement type: sAPP (α/β)

Examples from the recorded data:
Please fill in: sAPP (α/β) reported for Cc1cc(C2(c3ccnc(F)c3)N=C(N)N(C)C2=O)ccc1OC(F)F (stereo not drawn) = ↑≈10%

Form: compound = Cc1cc(C2(c3cccc(F)c3)N=C(N)N(Cc3ccccc3)C2=O)ccc1OC(F)F (stereo not drawn) ; sAPP (α/β) = ↑>50%

Entry Cc1cc(C2(c3cccc(Cl)c3)N=C(N)N(C)C2=O)ccc1OC(F)F (stereo not drawn) , sAPP (α/β) reported as ↑>50%

# sAPP (α/β) of Cc1cc(C2(c3cnn(C)c3)N=C(N)N(C)C2=O)ccc1OC(F)F (stereo not drawn) [30 HCl] = ↑≈40%

Entry under test: Cc1cc(C2(c3cccc(C(F)(F)F)c3)N=C(N)N(C)C2=O)ccc1OC(F)F (stereo not drawn) . Its sAPP (α/β) was ↑>50%

***
Consider Cc1cc(C2(c3cncnc3)N=C(N)N(C)C2=O)ccc1OC(F)F (stereo not drawn) . Its measured sAPP (α/β) is ↑≈10%

Measured sAPP (α/β) of Cc1cc(C2(c3cc(F)cc(Cl)c3)N=C(N)N(C)C2=O)ccc1OC(F)F (stereo not drawn) : ↑≈50%

sAPP (α/β) recorded for this compound, COc1cc(C2(c3ccc(OC(F)F)c(C)c3)N=C(N)N(C)C2=O)ccn1 (stereo not drawn) , is ↑≈50%

* * *

molecular target: BACE1 (Homo sapiens (Human)); assay: in vitro BACE inhibition assay (Primary BACE1 IC50); format: biochemical; conditions: Table 4; several values in a cell are repeat determinations; read-out: BACE1 IC50
Sequence (P56817 46-501): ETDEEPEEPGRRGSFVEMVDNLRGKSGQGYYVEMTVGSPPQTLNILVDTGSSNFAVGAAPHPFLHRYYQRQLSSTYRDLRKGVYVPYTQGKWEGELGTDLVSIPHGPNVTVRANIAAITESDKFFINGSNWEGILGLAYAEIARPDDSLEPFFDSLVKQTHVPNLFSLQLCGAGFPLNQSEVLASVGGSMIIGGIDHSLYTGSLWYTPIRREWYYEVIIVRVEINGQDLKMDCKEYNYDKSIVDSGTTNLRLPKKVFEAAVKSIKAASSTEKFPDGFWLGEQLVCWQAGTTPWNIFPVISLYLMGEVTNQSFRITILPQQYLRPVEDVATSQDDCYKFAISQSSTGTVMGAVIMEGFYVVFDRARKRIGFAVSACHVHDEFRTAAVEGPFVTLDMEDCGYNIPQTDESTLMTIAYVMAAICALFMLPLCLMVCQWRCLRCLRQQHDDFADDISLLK
measurement type: pIC50
Entry type: numeric. Quantity: pIC50, the -log10 of concentration in molar units.

According to the records, this compound Cc1cc(F)cc(C2(c3ccc(OC(F)F)c(C)c3)N=C(N)N(C)C2=O)c1 (centres unmarked) [FAH-22] displays pIC50 of 6.15

Lab book: pIC50 of CCCC1CC(C2(C3=CC(C)=C(OC(F)F)C(C)C3)N=C(N)N(C)C2=O)CCN1C (centres unmarked) [FAH-68] noted as 4.79

For reference, reported pIC50 for Cc1cc(C2(c3cccc(C4CNC4)c3)N=C(N)N(C)C2=O)ccc1OC(F)CF (centres unmarked) [FAH-64] stands at 5.49

Value of pIC50 reported for the compound Cc1cc(C2(C3CCN(C)CC3)N=C(N)N(C)C2=O)ccc1OC(F)CF (centres unmarked) [FAH-67] is 4.62

We now examine a further compound.
// field: pIC50; key: Cc1cc(C2(c3cccc(-c4cncc(F)c4)c3)N=C(N)N(C)C2=O)ccc1OC(F)F (centres unmarked) [FAH-66] ; value = 6.92

* * *

system: CHO-7W cells that were stably transfected with human APP (wildtype); assay: Secondary cell-based test of APP processing (sAPPalpha, sAPPbeta, Abeta 1-42); conditions: Secondary (1st test, n = 3); ratio, ↑ increase
measurement type: sAPP (α/β)

The molecule listed as CNCc1cccc(C2(c3ccc(OC(F)F)c(C)c3)N=C(N)N(C)C2=O)c1 (stereo not shown) has a reported sAPP (α/β) of ↑≈50%

In plain terms, Cc1cc(F)cc(C2(c3ccc(OC(F)F)c(C)c3)N=C(N)N(C)C2=O)c1 (stereo not shown) has a documented sAPP (α/β) of ↑≈50%

# sAPP (α/β) of Cc1cc(C2(c3cncc(F)c3)N=C(N)N(C)C2=O)ccc1OC(F)F (stereo not shown) = ↑>50%

* * *

test system: CHO-7W cells that were stably transfected with human APP (wildtype); test: Secondary cell-based test of APP processing (sAPPalpha, sAPPbeta, Abeta 1-42); details: Secondary (1st test, n = 3); ↓ decrease
measurement type: Abeta 1-42

// known answers, use as guide
The compound identified as Cc1cc(C2(c3cncc(F)c3)N=C(N)N(C)C2=O)ccc1OC(F)F (centres unmarked) registered its Abeta 1-42 at ↓≈20%

Value of measured Abeta 1-42 for the entry Cc1cc(C2(c3cccc(F)c3)N=C(N)N(Cc3ccccc3)C2=O)ccc1OC(F)F (centres unmarked) : ↓≈10%

Cc1cc(C2(c3cccc(Cl)c3)N=C(N)N(C)C2=O)ccc1OC(F)F (centres unmarked) yielded Abeta 1-42 of ↓>25%

Record CNCc1cccc(C2(c3ccc(OC(F)F)c(C)c3)N=C(N)N(C)C2=O)c1 (centres unmarked) , field Abeta 1-42: ↓<10%

Next:
Field Abeta 1-42 (entry Cc1cc(C2(c3cccc(F)c3)N=C(N)N(C)C2=O)ccc1OC(F)F (centres unmarked) ) reads ↓>30%

Briefly, Abeta 1-42 measured for Cc1cc(C2(c3cc(F)cc(Cl)c3)N=C(N)N(C)C2=O)ccc1OC(F)F (centres unmarked) : ↓>20%

* * *

tested on: CHO-7W cells that were stably transfected with human APP (wildtype); experiment: Secondary cell-based test of APP processing (sAPPalpha, sAPPbeta, Abeta 1-42); conditions: Secondary (1st test, n = 3); ↓ decrease
measurement type: Abeta 1-42

Solved entries (count: 4):
// Abeta 1-42 lookup, molecule = Cc1cc(C2(c3cccc(C(F)(F)F)c3)N=C(N)N(C)C2=O)ccc1OC(F)F (centres unmarked) [FAH-28] , result: ↓>20%

Cc1cc(C2(c3cncnc3)N=C(N)N(C)C2=O)ccc1OC(F)F (centres unmarked) [FAH-33] has a reported Abeta 1-42 of ↓≈10%

Reported Abeta 1-42 ( Cc1cc(C2(c3cc(F)cc(F)c3)N=C(N)N(C)C2=O)ccc1OC(F)F (centres unmarked) [FAH-03] ) = ↓>20%

Abeta 1-42 reading for Cc1cc(C2(c3cccc(-c4cccnc4)c3)N=C(N)N(C)C2=O)ccc1OC(F)F (centres unmarked) [FAH-32] : ↓>60%

Further cases:
Note to self: Abeta 1-42 recorded for Cc1cc(C2(c3ccc(OC(F)F)c(C)c3)N=C(N)N(C)C2=O)ccn1 (centres unmarked) [FAH-47] was ↓≈10%
